Values were extracted from patent US12624034B2.

TARGET_UNDER_TEST: AKT1 E17K (Homo sapiens, UniProt P31749, E17K)
Construct: expressed in transfected cells; host or cells: HEK293
Sequence (P31749 whole entry E17K): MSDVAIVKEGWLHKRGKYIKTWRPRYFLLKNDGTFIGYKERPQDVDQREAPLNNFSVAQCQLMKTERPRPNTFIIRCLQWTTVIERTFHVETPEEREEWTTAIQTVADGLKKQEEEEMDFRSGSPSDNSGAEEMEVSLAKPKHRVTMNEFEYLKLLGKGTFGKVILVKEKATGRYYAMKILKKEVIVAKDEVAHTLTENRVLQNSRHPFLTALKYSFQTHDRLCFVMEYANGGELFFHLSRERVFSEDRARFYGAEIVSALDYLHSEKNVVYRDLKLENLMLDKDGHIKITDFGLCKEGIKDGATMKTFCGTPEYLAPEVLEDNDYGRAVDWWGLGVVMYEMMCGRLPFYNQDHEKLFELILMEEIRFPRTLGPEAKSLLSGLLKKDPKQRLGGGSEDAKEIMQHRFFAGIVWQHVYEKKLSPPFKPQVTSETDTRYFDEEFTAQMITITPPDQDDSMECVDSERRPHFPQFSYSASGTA
ASSAY_METHOD_TEXT: Live cell AKT1 E17K target engagement by NanoBRET competitive probe displacement in HEK293 cells
Format: binding
STUDY_CONDITIONS: NanoBRET live cell target engagement, HEK293 cells, 2 h at 37° C.
Recorded log10 of IC50 values for a group of compounds are listed next.
Recorded IC50 (log10, nM)

Before answering, review these 5 worked examples.
>  <COMPOUND>
Cc1cncc(C(=O)N[C@H]2CCc3cc(-n4c(-c5cccnc5N)nc5ccc(-n6cccn6)nc54)ccc32)c1

>  <log10 of IC50>
1.71

$$$$
>  <COMPOUND>
Nc1ncccc1-c1nc2ccc(-n3cccn3)nc2n1-c1ccc2c(c1)CC[C@@H]2NC(=O)c1ccnc2sccc12

>  <log10 of IC50>
1.76

$$$$
>  <COMPOUND>
Cc1ncccc1C(=O)N[C@H]1CCc2cc(-n3c(-c4cccnc4N)nc4ccc(-n5cccn5)nc43)ccc21

>  <log10 of IC50>
1.90

$$$$
>  <COMPOUND>
Nc1ncccc1-c1nc2ccc(-n3ccc(F)n3)nc2n1-c1ccc2c(c1)CC[C@@H]2NC1CCN(c2ccccn2)CC1

>  <log10 of IC50>
2.87

$$$$
>  <COMPOUND>
COc1nccc(C(=O)N[C@H]2CCc3cc(-n4c(-c5cccnc5N)nc5ccc(-n6cccn6)nc54)ccc32)c1Cl

>  <log10 of IC50>
1.88

$$$$

Please report the recorded log10 of IC50 for COc1ccc(C(=O)N[C@H]2CCc3cc(-n4c(-c5cccnc5N)nc5ccc(-n6cccn6)nc54)ccc32)cc1 . 1.02

Now try Nc1ncccc1-c1nc2ccc(-n3cccn3)nc2n1-c1ccc2c(c1)CC[C@@H]2NC(=O)c1ccc(O)c(C(F)(F)F)c1 . 1.22

Another compound to check: Nc1ncccc1-c1nc2ccc(-n3cccn3)nc2n1-c1ccc2c(c1)CC[C@@H]2NC1CCN(c2ccccn2)C1 (some centres unmarked) [Compound 388] 2.39

What about Nc1ncccc1-c1nc2ccc(-n3cccn3)nc2n1-c1ccc2c(c1)CC[C@@H]2NC1CCN(c2ccccn2)CC1 ? 2.56

How about CN(C)c1cc(C(=O)N[C@H]2CCc3cc(-n4c(-c5cccnc5N)nc5ccc(-n6cccn6)nc54)ccc32)ccn1 ? 1.87

Try the compound Nc1ncccc1-c1nc2ccc(-n3cccn3)nc2n1-c1ccc2c(c1)CC[C@@H]2NC(=O)c1cnc(C(F)F)cn1 2.44
